The origin of these recorded values is PubChem BioAssay (NCI).

Each entry below carries its recorded TGI.
# Test system: MDA-N
# assay-summary: NCI tumour cell line growth inhibition, 48 h

compound: COc1nc(C)nc2c1ncn2Cc1ccccc1
assay-target: MDA-N
TGI: > 100 µM
--
compound: COc1cc(-c2oc3c(OC)c(O)cc(O)c3c(=O)c2OC)ccc1O
assay-target: MDA-N
TGI: 59.5 µM
--
compound: Cc1cc(-c2ccc(C(=O)C(c3ccccc3)(c3ccccc3)c3ccccc3)[nH]2)on1
assay-target: MDA-N
TGI: 41 µM
--
compound: Oc1ccc(Cn2c(-c3ccc(O)cc3)nc3ccccc32)cc1
assay-target: MDA-N
TGI: > 100 µM
--
compound: CCCCCCC(=O)OC[n+]1cccc(-c2c(COC(=O)NC(C)C)c(COC(=O)NC(C)C)c3n2CCC3)c1
assay-target: MDA-N
TGI: > 100 µM
--
compound: O=C(O)CCc1nc2cc3ccccc3cc2[nH]c1=O
assay-target: MDA-N
TGI: > 100 µM
--
compound: CN1CCCC(C(=O)OCC(=O)C2(O)CCC3C4CCC5=CC(=O)CCC5(C)C4C(O)CC32C)C1 (configuration not stated)
assay-target: MDA-N
TGI: 26.8 µM

###

# Tested on: NCI-H23 lung
# assay-summary: NCI tumour cell line growth inhibition, 48 h
Each entry below carries its recorded TGI.
quantity: TGI

compound: O=C1NC(c2ccccc2)N=C2Oc3ccccc3C=C12 (stereo not given)
assay-target: NCI-H23 lung
measurement: > 100 µM

compound: COc1ccc(N2C(=O)C3c4[nH]c5ccc(OCc6ccccc6)cc5c4C4CCC(C(C)C)CC4C3C2=O)cc1 (stereo not given)
assay-target: NCI-H23 lung
measurement: > 45.3 µM

compound: NCCSC(C[N+](=O)[O-])c1ccccc1Cl (stereo not given)
assay-target: NCI-H23 lung
measurement: 12 µM

compound: CCOC(=O)c1c(NC(=O)c2ccc(Br)cc2)sc2c1CCCC2
assay-target: NCI-H23 lung
measurement: > 100 µM

compound: CC(=O)C1=NN(c2ccccc2)C2(S1)SC(c1ccccc1)(c1ccccc1)c1ccccc12 (stereo not given)
assay-target: NCI-H23 lung
measurement: > 100 µM

###

Each entry below carries its recorded TGI.
# Tested on: HL-60(TB) leukemia
# assay-summary: NCI tumour cell line growth inhibition, 48 h
*1 amine or outer side, *2 acyl side, *3 side chain or, on linkers, in order; H or OH if unused. Where a SMILES comes first, the peptide text is derived from it. [ ]: non-standard residue; d: D form. The star is where a group is joined. X31 = CC(=O)N(C)SCC(N[*:1])C(=O)[*:2]; Fmoc = O=C(OCC1c2ccccc2-c2ccccc21)*; For = O=C*
quantity: TGI

compound: CCCC(CCC)C(=O)OCC1(CO)C/C(=C\c2ccc(C(F)(F)F)cc2)C(=O)O1 (stereo not given)
quantity: TGI
measurement: 8.13 µM

compound: COc1cccc(C(=O)N[C@@H]2[C@H](O)[C@@H](CO)O[C@H]2n2cnc3c(N)ncnc32)c1
quantity: TGI
measurement: > 100 µM

compound: COc1cc2c(Cc3cc(OCc4ccccc4)ccc3N)nccc2c(OC)c1OC
quantity: TGI
measurement: > 10 µM

compound: CC(=O)N(C)SCC(NC(=O)C(Cc1ccccc1)NC(=O)OCC1c2ccccc2-c2ccccc21)C(=O)NC(Cc1ccccc1)C(=O)NC(Cc1cn(C=O)c2ccccc12)C(=O)NC(CCCCNC(=O)OCC1c2ccccc2-c2ccccc21)C(=O)NC(C(=O)NC(CSN(C)C(C)=O)C(=O)NC(C(N)=O)C(C)O)C(C)O (stereo not given) (Fmoc-F[X31]FW(For)K(Fmoc)T[X31]T-NH2; configuration not given here)
quantity: TGI
measurement: > 100 µM

compound: O=C(NC1C=Nc2ccccc2NC1=O)c1ccccc1Cl (stereo not given)
quantity: TGI
measurement: 54.1 µM

###

# System: HCC-2998 colon
# assay-summary: NCI tumour cell line growth inhibition, 48 h
Each entry below carries its recorded TGI.
quantity: TGI

compound: CCCCCCCCCCCCCCCCCc1nnc(N)o1
assay-target: HCC-2998 colon
quantity: TGI
measurement: > 100 µM
--
compound: Cc1ccc(Nc2nc(C)c(C(/C=C/c3ccc4c(c3)OCO4)=N/Nc3ccc([N+](=O)[O-])cc3[N+](=O)[O-])s2)c([N+](=O)[O-])c1
assay-target: HCC-2998 colon
quantity: TGI
measurement: > 100 µM
--
compound: CC(=O)C1=NN(c2ccccc2)C2(S1)SC(c1ccccc1)(c1ccccc1)c1ccccc12 (stereo unspecified)
assay-target: HCC-2998 colon
quantity: TGI
measurement: > 100 µM
--
compound: Nc1nc(NCCOCP(=O)(O)O)c(N)c(=O)[nH]1
assay-target: HCC-2998 colon
quantity: TGI
measurement: > 100 µM
--
compound: CCOC(=O)c1cn(CC)c2cc3c(cc2c1=O)SCS3
assay-target: HCC-2998 colon
quantity: TGI
measurement: > 100 µM
--
compound: Cc1cc(C#N)c(Nc2ccccc2[N+](=O)[O-])s1
assay-target: HCC-2998 colon
quantity: TGI
measurement: 91.1 µM
--
compound: CN(CCO)/N=N/c1nc[nH]c1C(N)=O
assay-target: HCC-2998 colon
quantity: TGI
measurement: > 100 µM
--
compound: CN(C)c1ncnc2c1ccn2C1OC(CO)C(O)C1O (stereo unspecified)
assay-target: HCC-2998 colon
quantity: TGI
measurement: 18.1 µM
--
compound: COc1ccccc1Cn1[nH]c(=O)c2cc([N+](=O)[O-])ccc21
assay-target: HCC-2998 colon
quantity: TGI
measurement: > 100 µM
--
compound: CC#Cc1c(C#CC)c(OC)c2c(c1OC)C(=O)c1ccccc1C2=O
assay-target: HCC-2998 colon
quantity: TGI
measurement: > 100 µM
--
compound: CCCc1cc(-c2ccc(-c3cc(CCC)c(C=O)[nH]3)s2)[nH]c1C=O
assay-target: HCC-2998 colon
quantity: TGI
measurement: 22.9 µM

###

Each entry below carries its recorded TGI.
# System: UO-31 renal
# assay-summary: NCI tumour cell line growth inhibition, 48 h
quantity: TGI (µM)

molecule: O=c1oc2c(ccc3c(O)cccc32)c2c1CCCC2
quantity: TGI
limit-qualifier: >
measurement: 100
--
molecule: CC(Cc1ccc2c(c1)OCO2)N(C)C(=O)C1=CCN(C)CC1 (stereo not given)
quantity: TGI
limit-qualifier: >
measurement: 100
--
molecule: CCc1c2c(nc3ccc(OCc4ccc(B5OC(C)(C)C(C)(C)O5)cc4)cc13)-c1cc3c(c(=O)n1C2)COC(=O)[C@]3(O)CC
quantity: TGI
limit-qualifier: =
measurement: 1.02
--
molecule: OC1c2ccccc2C2C(O)c3ccccc3C12 (stereo not given)
quantity: TGI
limit-qualifier: >
measurement: 100
--
molecule: [O-][n+]1c2cc(CN3CCOCC3)c(CN3CCOCC3)cc2[n+]([O-])c2c(O)cccc21
quantity: TGI
limit-qualifier: =
measurement: 10.4
--
molecule: O=C1OC(OC/C(Br)=C(/Br)COC2OC(=O)C(Cl)=C2Cl)C(Cl)=C1Cl (stereo not given)
quantity: TGI
limit-qualifier: =
measurement: 15.6
--
molecule: COc1ccc(CN=C(N)N=C(N)N)cc1OC
quantity: TGI
limit-qualifier: >
measurement: 1000
--
molecule: COc1cc(C2S/C(=C/c3ccccc3)C(=O)N2c2ccccc2Cl)cc(OC)c1OC (stereo not given)
quantity: TGI
limit-qualifier: >
measurement: 100
--
molecule: COc1cc2nncc(SCc3ccc(Cl)c(Cl)c3)c2cc1OC
quantity: TGI
limit-qualifier: >
measurement: 100
--
molecule: CCCC(CCC)C(=O)OCC1(CO)C/C(=C\c2ccc(C(F)(F)F)cc2)C(=O)O1 (stereo not given)
quantity: TGI
limit-qualifier: =
measurement: 26.5

###

# Tested on: DLD-1 colon
# assay-summary: NCI tumour cell line growth inhibition, 48 h
Please mark yes (1) if the recorded TGI is equal to or greater than 30 µM, and no (0) if it falls below.

compound: O=C1NN=C(c2ccc([N+](=O)[O-])cc2)C1n1nc(-c2ccccc2)c2ccccc2c1=O (centres undefined)
class-assignment: yes (1)
--
compound: CC(=O)O/N=C/c1cc2c(cc1Br)OCO2
class-assignment: yes (1)
--
compound: O=C(O)c1cc(=O)c2cc(C(=O)c3cccs3)c(Cl)c(Cl)c2o1
class-assignment: yes (1)
--
compound: [O-][n+]1c2cc(CN3CCOCC3)c(CN3CCOCC3)cc2[n+]([O-])c2c(O)cccc21
class-assignment: no (0)
--
compound: COc1ccc(/C(C#N)=C(/N)SCc2ccccc2Cl)cc1
class-assignment: yes (1)
--
compound: CC1=C(C(=O)Nc2ccccc2C)C(c2ccccc2C)C(C(=O)Nc2ccccc2C)=C(C)N1
class-assignment: yes (1)
--
compound: COc1ccc(/C=N\O[Si](C)(C)C(C)(C)C)cc1O[Si](C)(C)C(C)(C)C
class-assignment: yes (1)
--
compound: CC(=O)O[C@H]1CC[C@@]2(C)C(=C/C(=N\[N+](=O)[O-])[C@H]3C4CCC([C@H](C)CCCC(C)C)[C@@]4(C)CCC32)C1 (some centres undefined)
class-assignment: yes (1)
--
compound: C/C([O-])=C(/c1nc(-c2ccc([N+](=O)[O-])o2)no1)[n+]1cc(C)ccc1C
class-assignment: no (0)
